Values compiled from the supplement of paper PMC8837787.

system: Saccharomyces cerevisiae ABC16-Green Monster; conditions: 18 h; 30 °C; YPD
experimental_readout: IC50 growth inhibition

> print(dat)
                                   molecule  reported.result
1  O=C1Nc2ccc(F)cc2/C1=N/NC(=S)NC1CC2C=CC1C2 (stereo not drawn)          55.9 µM
2  FC(F)c1nc2ccccc2n1-c1nc(N2CCOCC2)nc(N2CCOCC2)n1 [ZSTK-474]            52 µM
3    Cc1nc(-c2ccccn2)nc(N(C)CCc2ccccc2)c1Cl          43.3 µM
4     C=CCn1c(C)cc(C(=O)CSc2nc3ccccc3o2)c1C          11.2 µM
5   Cc1ccc(N/N=C/c2c3ccccc3cc3ccccc23)cc1Cl            14 µM
6  COc1cc(Nc2ncc(F)c(Nc3ccc4c(n3)NC(=O)C(C)(C)O4)n2)cc(OC)c1OC [Tamatinib besilate]          > 75 µM
7                    NC(=O)NO [Hydroxyurea]          > 75 µM
8          Cc1nc2ncnn2c(N2CCc3ccccc3C2)c1Cl          84.8 µM

----------
system: Saccharomyces cerevisiae ABC16-Green Monster; details: 18 h; 30 °C; YPD
experimental_readout: IC50 growth inhibition

compound	reported_result
C=CCC1C=C(C)CC(C)CC(OC)C2OC(O)(C(=O)C(=O)N3CCCCC3C(=O)OC(C(C)=CC3CCC(O)C(OC)C3)C(C)C(O)CC1=O)C(C)CC2OC (stereo not drawn) [Tacrolimus/FK-506]	> 75 µM
O=C(C1CCCCC1)N1CC(=O)N2CCc3ccccc3C2C1 (stereo not drawn) [Praziquantal]	> 75 µM
C[C@H]1CC[C@H](n2c3cnccc3c3cnc(Nc4ccc5c(n4)CCN(C(=O)CO)C5)nc32)CC1 [AMG 925]	> 75 µM
N=C(N)Nc1ccc(-c2ccc(-c3ccc(NC(=N)N)cc3Cl)o2)c(Cl)c1	44.5 µM
O=C(Nc1ccc2oc(-c3cccc4ccccc34)nc2c1)c1ccc([N+](=O)[O-])o1 [GNF-PF-2740]	0.941 µM
COc1ccc(CN2CCN(C(c3ccc(F)cc3)c3ccc(F)cc3)CC2)c(OC)c1OC [Lomerizine]	14.2 µM
CNC1CCC(c2ccc(Cl)c(Cl)c2)c2ccccc21.Cl (stereo not drawn) [Sertraline]	13.4 µM
O=C1C2=C(Nc3ccccc3SC2c2ccccc2F)c2ccccc21 (stereo not drawn)	9.02 µM
O[C@@H](c1cc(C(F)(F)F)nc2c(C(F)(F)F)cccc12)[C@H]1CCCCN1	45.6 µM
CNS(=O)(=O)c1ccc(C(=O)Nc2ccc(Nc3ccccc3)cc2)o1	92.5 µM
c1cc2c(cc1C1=NNC(=NC3CC3)SC1)CCCC2	50.8 µM
COc1ccc2nc(S(=O)Cc3ncc(C)c(OC)c3C)[nH]c2c1 (stereo not drawn) [Omeprazole]	> 75 µM
Cc1noc(C)c1C(=O)N1CCCC(c2[nH]c3c(C)cccc3c2-c2ccncc2)C1 (stereo not drawn)	20.8 µM
Clc1ccccc1-c1nc([P+](c2ccccc2)(c2ccccc2)c2ccccc2)c(N2CCOCC2)o1 [GNF-PF-2863]	8.55 µM
N#CC(c1ccc(Cl)cc1)c1c(Cl)cc(-n2ncc(=O)[nH]c2=O)cc1Cl (stereo not drawn) [Diclazuril]	68.5 µM
Br.Cc1ccnc(Nc2nc(-c3ccccn3)cs2)c1 [GNF-Pf-4739]	4.6 µM
Cc1cc(C)nc(-n2nc(C)cc2Nc2ccccc2)n1	42.1 µM
Cc1ccc2c(c1C)NC(=O)C21NN=C(c2ccccc2)S1 (stereo not drawn)	10.2 µM
Cc1cc(C(=O)Cn2nnc3ccccc3c2=O)c(C)n1-c1ccccc1F	20.5 µM
CCOC(=O)C1=C(C)NC(C)=C(C(=O)OC)C1c1cccc(Cl)c1Cl (stereo not drawn) [Felodipine]	20.7 µM
OC1=C2C(=Nc3ccccc3SC2c2ccccc2)c2ccccc21 (stereo not drawn) [GNF-Pf-4583]	2.54 µM
COc1ccc2sc(N(Cc3cccnc3)C(=O)c3ccc(C#N)cc3)nc2c1	3.85 µM
Cc1cc(C)n(-c2ccc3c(Cl)cc(Cl)c(O)c3n2)n1	71.3 µM
